Give pKi for every item shown.
TEST_METHOD_NOTES: Displacement of [3H]-DTG from Sigma2 receptor in Sprague-Dawley rat liver membrane after 150 mins by liquid scintillation counting analysis in presence of sigma1 blocker (+)-pentazocine
Type: cell membranes
Give bare numbers, as −log10 of the molar value.

Study these solved cases before continuing.
SMILES_DATA | pKi
O=C1CN(C(=O)c2ccccc2)C2(CCCC2)C(=O)N1C1CCCCC1 | 6.93
Cc1ccccc1NC(=N)Nc1ccccc1C | 7.23

Q. Name the recorded pKi for `COc1ccc(C(=O)N2CC(=O)N(C3CCCCC3)C(=O)C23CCCCC3)cc1` .
A. 5.27

----------
TEST_METHOD_NOTES: Displacement of [3H]-DTG from Sigma2 receptor in rat brain by liquid scintillation counting analysis in presence of sigma1 blocker (+)-pentazocine
Type: tissue-based
METRIC: Ki (µM)
Answers are plain numbers, in µM.

Q. Name the recorded Ki for `c1ccc(CN2CCC3(CC2)N=Nc2ccccc2N3)cc1` .
A. 4.22

Provenance of the data: ChEMBL document CHEMBL3804765
